So I've got a bunch of molecules here, and I need their IC50 values.
Molecular target: Focal adhesion kinase 1 (Homo sapiens)
Sequence (Q05397 whole entry): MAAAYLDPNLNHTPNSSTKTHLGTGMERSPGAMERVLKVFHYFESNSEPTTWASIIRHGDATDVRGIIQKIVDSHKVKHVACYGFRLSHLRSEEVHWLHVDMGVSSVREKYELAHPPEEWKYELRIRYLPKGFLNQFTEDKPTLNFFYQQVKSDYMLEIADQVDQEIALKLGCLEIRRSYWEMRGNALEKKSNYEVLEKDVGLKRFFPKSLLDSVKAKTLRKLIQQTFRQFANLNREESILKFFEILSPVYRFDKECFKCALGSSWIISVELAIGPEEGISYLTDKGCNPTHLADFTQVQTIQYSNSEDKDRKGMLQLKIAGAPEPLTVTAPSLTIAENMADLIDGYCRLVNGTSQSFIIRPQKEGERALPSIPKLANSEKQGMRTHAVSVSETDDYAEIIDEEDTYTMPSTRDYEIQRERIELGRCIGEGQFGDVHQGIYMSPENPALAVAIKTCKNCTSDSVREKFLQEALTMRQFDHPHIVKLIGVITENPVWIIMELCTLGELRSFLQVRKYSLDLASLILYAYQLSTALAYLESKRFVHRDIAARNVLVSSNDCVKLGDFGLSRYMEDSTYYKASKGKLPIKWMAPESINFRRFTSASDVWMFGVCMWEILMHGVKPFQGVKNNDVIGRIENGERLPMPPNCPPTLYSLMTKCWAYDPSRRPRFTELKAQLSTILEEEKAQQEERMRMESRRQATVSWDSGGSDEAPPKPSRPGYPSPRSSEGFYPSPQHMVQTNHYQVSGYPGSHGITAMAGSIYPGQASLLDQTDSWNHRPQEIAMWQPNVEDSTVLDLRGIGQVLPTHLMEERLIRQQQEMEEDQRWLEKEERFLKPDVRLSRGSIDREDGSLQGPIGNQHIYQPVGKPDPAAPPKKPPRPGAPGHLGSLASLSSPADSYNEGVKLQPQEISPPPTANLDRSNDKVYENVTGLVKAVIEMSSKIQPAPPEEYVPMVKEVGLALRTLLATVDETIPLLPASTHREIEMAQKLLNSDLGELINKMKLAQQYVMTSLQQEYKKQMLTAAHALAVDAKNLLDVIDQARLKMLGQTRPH
Assay: Inhibition of FAK in human 293GT cells after 1 hr by luminescence-based spectrophotometry
Format: cell-based

Q: Reported IC50 for `CS(=O)(=O)c1cccc(-c2ccc3cnc(Nc4ccc(C5CCN(CC(N)=O)CC5)cc4)nn23)c1` : what is it?
Ans: 1010 nM

Q: Request: `CC(C)(C)NS(=O)(=O)c1cccc(-c2ccc3cnc(Nc4ccc(C5CCN(CC(N)=O)CC5)cc4)nn23)c1`
Ans: 1340 nM

Q: Request: `COc1cccnc1-c1ccc2cnc(Nc3ccc(C4CCN(CC(N)=O)CC4)cc3)nn12`
Ans: > 10000 nM

Q: Request: `CS(=O)(=O)Nc1cccc(-c2ccc3cnc(Nc4ccc(C5CCN(CC(N)=O)CC5)cc4)nn23)c1`
Ans: 660 nM

Q: Request: `NC(=O)CN1CCC(c2ccc(Nc3ncc4ccc(-c5cccc(CO)c5)n4n3)cc2)CC1`
Ans: 1390 nM
